tested on: Mycobacterium xenopi; assay: Antitubercular activity against Mycobacterium xenopi ATCC 14470 assessed as growth inhibition after 48 hr by NCCLS agar dilution method; assay type: functional; conditions: ATCC 14470, 48 h
parameter: MIC

compound=NNC(=O)c1ccncc1 parameter=MIC endpoint_value="12.5 µg/mL"
compound="Cc1cccc(Nc2ccccc2C(=O)N/N=C2\\CC3CCC2(C)C3(C)C)c1C (configuration not stated)" parameter=MIC endpoint_value="> 100 µg/mL"
compound="C=C(C)C1CC=C(C)/C(=N/NC(=O)c2ccncc2)C1 (configuration not stated)" parameter=MIC endpoint_value="12 µg/mL"
compound="CC12CCC(C/C1=N/NC(=O)c1ccncc1)C2(C)C (configuration not stated)" parameter=MIC endpoint_value="50 µg/mL"
compound="C=C(C)C1CC=C(C)/C(=N/NC(=O)c2ccccc2Nc2cccc(C(F)(F)F)c2)C1 (configuration not stated)" parameter=MIC endpoint_value="> 100 µg/mL"
compound=CC(C)=CCC/C(C)=C/C=N/NC(=O)c1ccncc1 parameter=MIC endpoint_value="> 100 µg/mL"
compound="CCn1cc(C(=O)N/N=C2\\CC3CCC2(C)C3(C)C)c(=O)c2ccc(C)nc21 (configuration not stated)" parameter=MIC endpoint_value="50 µg/mL"
compound=CC(C)=CCC/C(C)=C\C=N/NC(=O)c1ccccc1Nc1cccc(C)c1C parameter=MIC endpoint_value="> 100 µg/mL"
compound="C=C(C)C1CC=C(C)/C(=N\\NC(=O)c2cn(CC)c3nc(C)ccc3c2=O)C1 (configuration not stated)" parameter=MIC endpoint_value="> 100 µg/mL"
compound=CCn1cc(C(=O)N/N=C\C=C(/C)CCC=C(C)C)c(=O)c2ccc(C)nc21 parameter=MIC endpoint_value="> 100 µg/mL"
compound="CC12CCC(C/C1=N\\NC(=O)c1ccccc1Nc1cccc(C(F)(F)F)c1)C2(C)C (configuration not stated)" parameter=MIC endpoint_value="> 100 µg/mL"
compound="C=C(C)C1CC=C(C)/C(=N/NC(=O)c2ccccc2Nc2cccc(C)c2C)C1 (configuration not stated)" parameter=MIC endpoint_value="> 100 µg/mL"
